Each recorded value in this set is attributed to paper PMC9854762.

endpoint-name: melting point

### Prompt Data request, read-out melting point, for CCOC(=O)c1ccc(N=Nc2c(N)nn3c(-c4ccco4)cc(-c4ccccc4)nc23)cc1 [Compound 8b]
### Response 212 to 214 °C

### Prompt Fill in the blank: the reported melting point of CCOC(=O)c1ccc(N=Nc2c(N)nn(C(N)=S)c2N)cc1 [Compound 3c] is ____.
### Response 280 to 282 °C

### Prompt Bench note: what melting point did CCOC(=O)c1ccc(N=Nc2c(N)nn3c(O)c(C#N)c(-c4ccc(Cl)cc4)nc23)cc1 [Compound 10b] show?
### Response 270 to 272 °C

### Prompt # melting point lookup, item CCOC(=O)c1ccc(N=Nc2c(N)nn3c(-c4cccs4)cc(-c4ccccc4)nc23)cc1 [Compound 8a]
### Response 200 to 202 °C

### Prompt Look up melting point for this molecule: CCOC(=O)c1ccc(N=Nc2c(N=Cc3ccc(OC)cc3)n[nH]c2N)cc1 [Compound 5b]
### Response 210 to 212 °C

### Prompt Given the molecule CCOC(=O)c1ccc(N=Nc2c(N)nn3c(N)c(C#N)c(-c4ccc(Cl)cc4)nc23)cc1 [Compound 9c] , what is its reported melting point?
### Response 288 to 290 °C

### Prompt // lookup melting point for CCOC(=O)c1ccc(N=Nc2c(N)nn(-c3ccccc3)c2N)cc1 [Compound 3b]
### Response 144 to 146 °C

### Prompt Using the record for CCOC(=O)c1ccc(N=Nc2c(N)nn3c2N=C(C)CC3=O)cc1 [Compound 7] , report its melting point.
### Response 296 to 298 °C

### Prompt Name the recorded melting point for CCOC(=O)c1ccc(N=Nc2c(N)nn(C(O)=CC#N)c2N)cc1 [Compound 4] .
### Response 290 to 292 °C

### Prompt Looking for the measured melting point of CCOC(=O)c1ccc(N=Nc2c(N)nn3c(N)c(C#N)c(-c4ccc(OC)cc4)nc23)cc1 [Compound 9b] , can you help?
### Response 210 to 212 °C

###

Tested on: A. baumannii DH-243
Assay: Agar well-diffusion assay
Type: cell-based
Conditions: Acinetobacter baumannii, DH243; A. baumannii DH-243; 50 µL of 10 mM per well; read-out: Diameter of Inhibition Zones (AZOI)
Can you tell me zone of inhibition at 10000 µM for the items I'm about to list?
Field: numeric (mm). Do not append units.

### Prompt Reported zone of inhibition at 10000 µM for `CCOC(=O)c1ccc(N=Nc2c(N=Cc3ccc(OC)cc3)n[nH]c2N)cc1` : what is it?
### Response 23.4

### Prompt GET /values?readout=zone of inhibition at 10000 µM&item= `CCOC(=O)c1ccc(N=Nc2c(N)nn3c(-c4ccc(Cl)cc4)cc(-c4ccccc4)nc23)cc1`
### Response 15.2

### Prompt Entry `CCOC(=O)c1ccc(N=Nc2c(N)nn3c(C)cc(C)nc23)cc1` : reported zone of inhibition at 10000 µM = ?
### Response 28.8

### Prompt Look up zone of inhibition at 10000 µM for this compound: `CCOC(=O)c1ccc(N=Nc2c(N)nn3c(N)c(C#N)c(-c4ccc(N(C)C)cc4)nc23)cc1`
### Response 28.4

###

System: E. faecalis DH-5478
Experiment: Broth microdilution MIC/MBC
Type: cell-based, Enterococcus faecalis
Conditions: value in brackets
Please go through the items and note down their MBC/MIC.
Could you respond with only the numeric value?

### Prompt E. faecalis DH-5478 / MBC/MIC / `CCOC(=O)c1ccc(N=Nc2c(N=Cc3ccc(N(C)C)cc3)n[nH]c2N)cc1` : value?
### Response 0.5

### Prompt Item: `CCOC(=O)c1ccc(N=Nc2c(N)nn3c(C)cc(C)nc23)cc1` Test system: E. faecalis DH-5478 Read-out: MBC/MIC Value: ?
### Response 0.5

### Prompt # get_value(readout= MBC/MIC, system= E. faecalis DH-5478) for `CCOC(=O)c1ccc(N=Nc2c(N)nn3c(-c4ccc(Cl)cc4)cc(-c4ccccc4)nc23)cc1`
### Response 2

### Prompt Form field - read-out: MBC/MIC; system: E. faecalis DH-5478; submitted item: `CCOC(=O)c1ccc(N=Nc2c(N)nn3c2N=C(C)CC3=O)cc1`
### Response 1

### Prompt What reported MBC/MIC corresponds to `CCOC(=O)c1ccc(N=Nc2c(N)nn(C(O)=CC#N)c2N)cc1` on E. faecalis DH-5478?
### Response 0.5

### Prompt What measured MBC/MIC is associated with `CCOC(=O)c1ccc(N=Nc2c(N)nn3c(N)c(C#N)c(-c4ccc(Cl)cc4)nc23)cc1` on E. faecalis DH-5478?
### Response 1

### Prompt Form: Entry = CC[C@H]1OC(=O)[C@H](C)[C@@H](O[C@H]2C[C@@](C)(OC)[C@@H](O)[C@H](C)O2)[C@H](C)[C@@H](O[C@@H]2O[C@H](C)C[C@H](N(C)C)[C@H]2O)[C@](C)(O)C[C@@H](C)C(=O)[C@H](C)[C@@H](O)[C@]1(C)O [E, Erythromycin, reference compound] | System = E. faecalis DH-5478 | MBC/MIC = ____
### Response 4

### Prompt Form field - read-out: MBC/MIC; system: E. faecalis DH-5478; submitted item: `CCOC(=O)c1ccc(N=Nc2c(N)nn(-c3ccccc3)c2N)cc1`
### Response 0.5

### Prompt Recorded MBC/MIC for `CCOC(=O)c1ccc(N=Nc2c(N=Cc3ccc(OC)cc3)n[nH]c2N)cc1` with E. faecalis DH-5478, please?
### Response 1

###

Tested on: P. aeruginosa DH-5698
Assay: Broth microdilution MIC/MBC
Type: cell-based, Pseudomonus aeruginosa
Settings: value in brackets
endpoint-name: MBC/MIC
Form rule: numeric answer, no unit written next to it.

### Prompt Report MBC/MIC for `CCOC(=O)c1ccc(N=Nc2c(N)n[nH]c2N)cc1` please.
### Response 0.5

### Prompt Which MBC/MIC value is on record for `CCOC(=O)c1ccc(N=Nc2c(N)nn3c(C)cc(C)nc23)cc1` ?
### Response 0.5

### Prompt Returns the measured MBC/MIC for the input compound. Input: `CCOC(=O)c1ccc(N=Nc2c(N=Cc3ccc(N(C)C)cc3)n[nH]c2N)cc1`
### Response 0.5

### Prompt Return reported MBC/MIC; argument: `CCOC(=O)c1ccc(N=Nc2c(N)nn3c2N=C(C)CC3=O)cc1`
### Response 0.5

### Prompt Recorded MBC/MIC for `CCOC(=O)c1ccc(N=Nc2c(N)nn3c(-c4ccco4)cc(-c4ccccc4)nc23)cc1` , please?
### Response 2

### Prompt Fill in the blank: the reported MBC/MIC of CCOC(=O)c1ccc(N=Nc2c(N)nn3c(O)c(C#N)c(-c4ccc(Cl)cc4)nc23)cc1 [Compound 10b] is ____.
### Response 0.5

### Prompt Please give the measured MBC/MIC for this compound: `CCOC(=O)c1ccc(N=Nc2c(N)nn3c(-c4ccc(Cl)cc4)cc(-c4ccccc4)nc23)cc1`
### Response 2

### Prompt Give the measured MBC/MIC of NCC[C@H](O)C(=O)N[C@@H]1C[C@H](N)[C@@H](O[C@H]2O[C@H](CN)[C@@H](O)[C@H](O)[C@H]2O)[C@H](O)[C@H]1O[C@H]1O[C@H](CO)[C@@H](O)[C@H](N)[C@H]1O [AK, Amikacin, reference compound] .
### Response 4

### Prompt Which MBC/MIC value is on record for `CCOC(=O)c1ccc(N=Nc2c(N=Cc3ccc(OC)cc3)n[nH]c2N)cc1` ?
### Response 1

### Prompt So what's the measured MBC/MIC for this one? `CCOC(=O)c1ccc(N=Nc2c(N)nn3c(N)c(C#N)c(-c4ccc(Cl)cc4)nc23)cc1`
### Response 1

### Prompt Given the entry `CCOC(=O)c1ccc(N=Nc2c(N)nn3c(-c4cccs4)cc(-c4ccccc4)nc23)cc1` , report its measured MBC/MIC.
### Response 1

### Prompt # get_value(readout='MBC/MIC', item= `CCOC(=O)c1ccc(N=Nc2c(N)nn3c(N)c(C#N)c(-c4ccc(OC)cc4)nc23)cc1` )
### Response 0.5

### Prompt Item `CCOC(=O)c1ccc(N=Nc2c(N)nn(-c3ccccc3)c2N)cc1` has what recorded MBC/MIC?
### Response 0.5

### Prompt Requested field: MBC/MIC. Item: `CCOC(=O)c1ccc(N=Nc2c(N)nn(C(N)=S)c2N)cc1`
### Response 1

### Prompt I have this compound here, `CCOC(=O)c1ccc(N=Nc2c(N)nn3c(N)c(C#N)c(-c4ccc(N(C)C)cc4)nc23)cc1` , and I need its recorded MBC/MIC.
### Response 0.5

### Prompt Look at this compound and give its reported MBC/MIC. CCOC(=O)c1ccc(N=Nc2c(N)nn3c(O)c(C#N)c(-c4ccc(N(C)C)cc4)nc23)cc1 [Compound 10a]
### Response 0.5

### Prompt Please give the measured MBC/MIC for this compound: `CCOC(=O)c1ccc(N=Nc2c(N)nn(C(O)=CC#N)c2N)cc1`
### Response 1
